test system: HT-29; test: Antiproliferative activity against human HT-29 cells assessed as cell viability incubated for 48 hrs by MTT assay; assay type: functional
observable: GI50 (µM)

# annotated cases, reported GI50 shown
{"compound string": "CC(=O)Nc1ccc(Oc2ccc(NC(=O)Nc3cccc(C(F)(F)F)c3)cc2)cn1", "target": "HT-29", "observable": "GI50", "assay value": 8.6}
{"compound string": "O=C(Nc1ccc(Oc2cnc3[nH]ccc3c2)cc1)Nc1cccc(Cl)c1", "target": "HT-29", "observable": "GI50", "assay value": 41.1}
{"compound string": "Nc1ccc(Oc2cccc(NC(=O)Nc3ccc(F)c(Cl)c3)c2)cn1", "target": "HT-29", "observable": "GI50", "assay value": 19.1}

P = Nc1ccc(Oc2cccc(NC(=O)Nc3ccccc3F)c2)cn1
Q = O=C(Nc1cccc(Oc2cnc3[nH]ccc3c2)c1)Nc1cccc(C(F)(F)F)c1
Query: Kindly identify which of P and Q has the larger recorded GI50 value. Field: selected label. Fill in the label of the entry you choose.
Response: P

A = O=C(Nc1cccc(Oc2cnc3[nH]ccc3c2)c1)Nc1ccc(Cl)c(C(F)(F)F)c1
B = CNC(=O)c1cc(Oc2ccc(NC(=O)Nc3ccc(Cl)c(C(F)(F)F)c3)cc2)ccn1
Query: Lab log: flag the item ( A or B ) with the smaller GI50 figure. Output the label that corresponds to your choice.
Response: B

I = Nc1ccc(Oc2cccc(NC(=O)Nc3ccc(Cl)c(C(F)(F)F)c3)c2)cn1
II = O=C(Nc1ccc(Oc2cnc3[nH]ccc3c2)cc1)Nc1ccc(Cl)c(C(F)(F)F)c1
III = Nc1ccc(Oc2ccc(NC(=O)Nc3cccc(F)c3)cc2)cn1
IV = Nc1ccc(Oc2ccc(NC(=O)Nc3ccc(Cl)c(C(F)(F)F)c3)cc2)cn1
Query: Order each entry by recorded GI50, climbing from the minimum. Answer by writing out the labels in the requested order.
Response: II, IV, I, III

A = Cn1cc(-c2ccc(-c3cncc(Cl)c3N3CCC4(CCNC4=O)CC3)cc2)cn1
B = Nc1ccc(Oc2cccc(NC(=O)Nc3cccc(Cl)c3)c2)cn1
C = Cc1cccc(NC(=O)Nc2ccc(Oc3ccc(N)nc3)cc2)c1
D = Nc1ccc(Oc2cccc(NC(=O)Nc3cccc(C(F)(F)F)c3)c2)cn1
E = Cc1ccc(NC(=O)Nc2cccc(Oc3ccc(N)nc3)c2)cc1
Query: Sort these compounds on GI50 so the largest reading comes first. Lab note: final answer is the ordered label list.
Response: C, B, E, A, D

I = Nc1ccc(Oc2cccc(NC(=O)Nc3ccc(F)c(C(F)(F)F)c3)c2)cn1
II = Cc1ccc(NC(=O)Nc2ccc(Oc3cnc4[nH]ccc4c3)cc2)cc1C(F)(F)F
Query: Which entry shows the lesser value of GI50 here, I or II ? Your answer should be the label of the entry you select.
Response: I
(I: 7.7 µM, II: 39.8 µM)

----------
experiment: Half life in Sprague-Dawley rat at 2 mg/kg, iv upto 24 hrs by HPLC analysis; assay type: ADME, organism-based; conditions: in vivo
observable: half-life (min)
Write the value in min as a bare number.

Entry under test: Nc1ccc(Oc2ccc(NC(=O)Nc3cccc(C(F)(F)F)c3)cc2)cn1 . Its half-life was 30

----------
assay: AUC (0 to infinitive) in Sprague-Dawley rat at 2 mg/kg, iv upto 24 hrs by HPLC analysis; assay type: ADME, organism-based; parameters: time < 24 hrs, dose 2 mg/kg, route iv; conditions: in vivo
observable: AUC(0-inf) (ng·h/mL)
Hi! Could you send only the number? It should be in ng·h/mL, unit omitted.

For this compound ( Nc1ccc(Oc2ccc(NC(=O)Nc3cccc(C(F)(F)F)c3)cc2)cn1 ), measured AUC(0-inf) is 382
